Source: paper PMC3220529

- TEST_SYSTEM: S100A10^C82S-annexin A2 hybrid protein (A10A2) (rabbit | not stated)
- ASSAY_NAME: NMR titration
QUANTITY_MEASURED: Kd

Exercise: Data request, read-out Kd, for Ac-GKVTFPKMKIPKFTFSGREL-NH2 [AHNAK5 peptide (AHNAK residues Gly5654-Leu5673)]
Key: < 1000 nM
